composite z-score values for the compounds below.
molecular target: Streptavidin (Streptomyces avidinii) (UniProt P22629); assay: streptavidin binders on small-molecule microarray, primary screen, artefact control for SMM compound annotation, biophysical, 635/667 nm fluorescence (AID 1147); conditions: streptavidin binding, higher = more signal;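 also: signal reflects streptavidin binding to arrayed compounds as a control protein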
Sequence (P22629 whole entry, looked up): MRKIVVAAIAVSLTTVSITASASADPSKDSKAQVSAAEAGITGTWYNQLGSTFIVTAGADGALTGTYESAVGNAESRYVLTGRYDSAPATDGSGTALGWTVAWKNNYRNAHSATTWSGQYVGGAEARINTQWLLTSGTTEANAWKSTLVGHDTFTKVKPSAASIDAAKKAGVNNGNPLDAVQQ
Field format: numeric only.

Below, each entry is followed by its recorded composite z-score result.
[[record]]
compound = "O=C1OCC=C[C@H]2OC34C=CCN(Cc5ccccc5)C(=O)[C@H]3N(CCCCCO)C(=O)[C@@H]4[C@@H]12 (stereo partly specified)"
targetdesc = "Streptavidin (Streptomyces avidinii) (UniProt P22629)"
endpointresult = -1.62

[[record]]
compound = "C=C(COC)/C(=C/C[C@@H](OC(C)=O)c1cccc(OCCO)c1)c1cc(C(=O)OC)ccc1OC"
targetdesc = "Streptavidin (Streptomyces avidinii) (UniProt P22629)"
endpointresult = -0.798

[[record]]
compound = "COCCOC(=O)N1C(=O)[C@@]2(c3cc(C#CCC(C(=O)OC)C(=O)OC)ccc31)[C@H](C(=O)N1CCN(c3ncccn3)CC1)[C@H]1C(=O)O[C@H](c3ccccc3)[C@H](c3ccccc3)N1[C@@H]2c1ccc(O)cc1"
targetdesc = "Streptavidin (Streptomyces avidinii) (UniProt P22629)"
endpointresult = 0.043

[[record]]
compound = "CC(=O)Nc1ccc([C@H]2[C@H](C)CC[C@H]3C(=O)N4[C@@H](CC[C@@H](C)[C@@H]4c4ccc(NC(C)=O)cc4)C(=O)N32)cc1"
targetdesc = "Streptavidin (Streptomyces avidinii) (UniProt P22629)"
endpointresult = 0.627

[[record]]
compound = "CC1=C([C@H](O)CCc2ccccc2)[C@H](CO)[C@@H]2C(=O)N(Cc3ccccc3)C(=O)[C@@H]2C1"
targetdesc = "Streptavidin (Streptomyces avidinii) (UniProt P22629)"
endpointresult = 0.925


Now examine the next entry.
// query Give the measured composite z-score of `COCCOC(=O)N1C(=O)[C@@]2(c3cc(C#CC4=CCCCC4)ccc31)[C@H](c1ccc(O)cc1)N1[C@H](c3ccccc3)[C@H](c3ccccc3)OC(=O)[C@H]1[C@@H]2C(=O)N1CCCCCCC1` .
// result 1.29

Values from PubChem BioAssay
